Origin of values: ChEMBL document CHEMBL4732114

Catalogue of MIC values
Molecular target: Multidrug efflux pump subunit AcrB (Escherichia coli (strain K12))
Sequence (whole entry): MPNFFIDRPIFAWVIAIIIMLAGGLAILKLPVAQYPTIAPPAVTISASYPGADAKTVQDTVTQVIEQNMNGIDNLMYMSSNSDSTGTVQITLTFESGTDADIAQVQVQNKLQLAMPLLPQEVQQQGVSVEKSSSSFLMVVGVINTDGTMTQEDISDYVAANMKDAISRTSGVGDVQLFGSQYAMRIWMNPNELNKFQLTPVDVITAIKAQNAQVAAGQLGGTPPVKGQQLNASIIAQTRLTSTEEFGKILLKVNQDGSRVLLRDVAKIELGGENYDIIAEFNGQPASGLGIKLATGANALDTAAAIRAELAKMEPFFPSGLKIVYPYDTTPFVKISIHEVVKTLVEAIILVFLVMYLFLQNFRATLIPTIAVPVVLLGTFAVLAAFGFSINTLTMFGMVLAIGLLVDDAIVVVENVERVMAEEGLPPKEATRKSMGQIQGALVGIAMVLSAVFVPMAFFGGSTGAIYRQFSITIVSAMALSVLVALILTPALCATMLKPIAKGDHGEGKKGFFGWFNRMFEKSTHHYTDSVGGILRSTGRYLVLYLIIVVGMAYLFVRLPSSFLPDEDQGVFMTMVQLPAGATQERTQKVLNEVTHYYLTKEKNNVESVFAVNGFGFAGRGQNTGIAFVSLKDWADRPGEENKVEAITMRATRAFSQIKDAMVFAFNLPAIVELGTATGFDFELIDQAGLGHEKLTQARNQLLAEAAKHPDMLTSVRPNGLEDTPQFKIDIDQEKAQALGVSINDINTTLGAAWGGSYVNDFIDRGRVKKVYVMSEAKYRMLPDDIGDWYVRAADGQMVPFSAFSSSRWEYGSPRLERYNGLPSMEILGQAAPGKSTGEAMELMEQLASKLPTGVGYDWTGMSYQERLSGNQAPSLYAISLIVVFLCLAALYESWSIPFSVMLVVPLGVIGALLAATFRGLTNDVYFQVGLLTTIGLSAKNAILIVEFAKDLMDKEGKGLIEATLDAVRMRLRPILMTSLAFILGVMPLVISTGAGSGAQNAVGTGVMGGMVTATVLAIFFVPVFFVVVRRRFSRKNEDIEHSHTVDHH
Test: Inhibition of AcrB in multidrug-resistant Escherichia coli BW25113 assessed as potentiation of tetraphenylphosphonium-induced antibacterial activity by measuring tetraphenylphosphonium MIC at 16 ug/ml by checkerboard titration method (reference value: 1024 ug/ml)
Settings: dose 16.0 µg/ml
Reply with the number, then its unit.

Here is how some molecules turned out for MIC.
CC1CN(C(=O)c2cc3c(OCc4ccc(Br)cc4)cccc3c3c2CCC(C)(C)O3)CC(C)O1 (centres undefined) ... 1020 µg/mL
CC1(C)CCc2c(-c3nnco3)cc3c(OCc4ccccc4)cccc3c2O1 ... 512 µg/mL
C=CC(=O)Nc1ccc(COc2cccc3c4c(c(Cn5cnnn5)cc23)CCC(C)(C)O4)cc1 ... 1020 µg/mL

(Q) Under Multidrug efflux pump subunit AcrB (Escherichia coli (strain K12)): report MIC of `CC1(C)CCc2c(C(=O)O)cc3c(OCc4ccccc4)cccc3c2O1` .
(A) 1020 µg/mL
